Assign pIC50 to each entry below.
# target: Adenosine receptor A2b (Homo sapiens)
# Sequence (P29275 whole entry): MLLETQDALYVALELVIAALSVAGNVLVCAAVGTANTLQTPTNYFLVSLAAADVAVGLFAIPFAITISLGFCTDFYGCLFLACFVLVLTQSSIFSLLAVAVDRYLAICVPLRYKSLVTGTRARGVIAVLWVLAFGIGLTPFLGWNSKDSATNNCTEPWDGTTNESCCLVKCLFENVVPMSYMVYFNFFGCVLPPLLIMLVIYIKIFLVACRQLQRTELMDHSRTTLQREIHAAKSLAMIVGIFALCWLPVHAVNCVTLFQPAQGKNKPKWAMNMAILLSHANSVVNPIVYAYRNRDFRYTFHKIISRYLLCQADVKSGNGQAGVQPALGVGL
# protocol: Inhibitory activity against cAMP production in CHO cells transfected with human A2B adenosine receptor
Bear in mind: pIC50 is minus log10 of a mol/L concentration; give just that figure.

Q) So what pIC50 did CCCn1c(=O)c2[nH]c(-c3cc(NC(=O)Cc4ccc(OCc5ccccc5)cc4)nn3C)nc2n(CCC)c1=O get with Adenosine receptor A2b (Homo sapiens)?
A) 6.73

Q) // same read-out, input: CCCn1c(=O)c2[nH]c(-c3cc(OCC(=O)Nc4ccc(C(=O)O)cc4)nn3C)nc2n(CCC)c1=O
A) 6.94

Q) // same read-out, input: CCCn1c(=O)c2nc(-c3cc(OCC(=O)Nc4ccc5c(c4)OCO5)no3)[nH]c2n(CCC)c1=O
A) 6.85

Q) // same read-out, input: C=CCn1c(=O)c2[nH]c(-c3cc(OCC(=O)N4CCN(c5ccccc5)CC4)nn3C)nc2n(CC=C)c1=O
A) 7.09

Q) // same read-out, input: CCCn1c(=O)c2[nH]c(-c3ccc(OCC(=O)Nc4ccc(I)cc4)nc3)nc2n(CCC)c1=O
A) 6.32

Q) // same read-out, input: CCCn1c(=O)c2[nH]c(-c3cc(OCC(=O)Nc4ccc(OC)c(OC)c4)nn3C)nc2n(CCC)c1=O
A) 7.34
